target-system: Cytochrome P450 1A2 (Homo sapiens) (UniProt P05177)
Sequence (P05177 whole entry, looked up): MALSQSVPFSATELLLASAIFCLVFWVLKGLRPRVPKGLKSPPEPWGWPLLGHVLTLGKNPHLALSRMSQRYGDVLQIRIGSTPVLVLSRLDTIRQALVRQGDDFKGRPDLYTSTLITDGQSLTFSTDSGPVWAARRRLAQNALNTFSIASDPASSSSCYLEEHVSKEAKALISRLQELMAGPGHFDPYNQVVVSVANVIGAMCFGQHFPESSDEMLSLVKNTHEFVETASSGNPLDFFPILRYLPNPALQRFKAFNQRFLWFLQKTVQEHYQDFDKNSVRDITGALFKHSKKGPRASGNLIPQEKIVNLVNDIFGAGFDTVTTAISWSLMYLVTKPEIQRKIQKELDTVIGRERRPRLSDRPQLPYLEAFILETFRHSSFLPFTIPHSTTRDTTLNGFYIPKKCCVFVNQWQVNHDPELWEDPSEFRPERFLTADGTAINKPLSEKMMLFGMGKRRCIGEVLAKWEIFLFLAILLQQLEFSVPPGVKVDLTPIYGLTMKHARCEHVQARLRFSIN
experimental-protocol: Cytochrome P450 Family 1 Subfamily A Member 2 (CYP1A2) small molecule antagonists: luciferase reporter qHTS assay (AID 1671199); further: nearly all actives have a fitted effect of over 50% in size
protocol-conditions: P450-Glo CYP1A2 enzyme, luciferin luminescence, 1 h; series mostly up to 53 µM
Inconclusive results are not listed. Active and inactive are the calls of the source. The call rests on the fitted dose curve; in most records, active means well fitted inhibition curve with a large enough effect in the repeat runs; inconclusive means weak or mixed curves; inactive means no such curve, though single readings can be large or run the other way.
Valid outcomes are listed here; reply with one: active, inactive

Q) Assay result, entry CN1CCC(Nc2ncc3ncnc(Nc4ccc(F)c(Cl)c4)c3n2)CC1 — outcome?
A) inactive

Q) Assay result, entry C=CC(=O)OCCn1c(=O)n(CCOC(=O)C=C)c(=O)n(CCOC(=O)C=C)c1=O — outcome?
A) active

Q) Assay result, entry C[n+]1cc2c3c(ccc2c2ccc4cc5c(cc4c21)OCO5)OCO3 — outcome?
A) active

Q) Assay result, entry Cc1cccc(N(C)C(=S)Oc2ccc3c(c2)C2CCC3C2)c1 (stereo unspecified) — outcome?
A) active

Q) Assay result, entry O=S1(=O)CC(Cl)(Cl)C(Cl)(Cl)C1 — outcome?
A) active

Q) Assay result, entry COc1ccc(-c2ccc3cc(C(=O)O)ccc3c2)cc1C12CC3CC(CC(C3)C1)C2 — outcome?
A) inactive

Q) Assay result, entry CC(C)OC(=O)c1cc2c(OCC(O)CNC(C)(C)C)cccc2[nH]1 (stereo unspecified) — outcome?
A) inactive

Q) Assay result, entry CC(C)CCCCCCCCCCCCCCC(=O)O — outcome?
A) inactive

Q) Assay result, entry CS(=O)(=O)CCNCc1ccc(-c2ccc3ncnc(Nc4ccc(OCc5cccc(F)c5)c(Cl)c4)c3c2)o1 — outcome?
A) inactive

Q) Assay result, entry Cc1cccc2c1cc1ccc3cccc4ccc2c1c34 — outcome?
A) active

Q) Assay result, entry CN(C/C=C/C#CC(C)(C)C)Cc1cccc2ccccc12 — outcome?
A) active

Q) Assay result, entry O=C(OCC(COC(=O)c1ccccc1)(COC(=O)c1ccccc1)COC(=O)c1ccccc1)c1ccccc1 — outcome?
A) inactive

Q) Assay result, entry CCCCCCCCCCCC[N+](C)(C)CCCCCCCCCCCC — outcome?
A) active

Q) Assay result, entry CCCCCOc1ccccc1/C(=C\SC)n1ccnc1 — outcome?
A) active

Q) Assay result, entry C/C=C1/C(=O)C[C@H]2[C@@H]3CCC4=CC(=O)CC[C@]4(C)[C@H]3CC[C@]12C — outcome?
A) active

Q) Assay result, entry COCCCC/C(=N\OCCN)c1ccc(C(F)(F)F)cc1 — outcome?
A) active
